Where these numbers come from: ChEMBL document CHEMBL3112531

Test Method Notes: Volume of distribution at steady state in Sprague-Dawley rat at 1 mg/kg, iv
Type: ADME, organism-based
Design: dose 1 mg/kg, route intravenous
Conditions Used: Sprague-Dawley, in vivo, read-out: Vdss
# Vd per record follows
Number in L/kg, nothing else.

See these solved cases before continuing.
{"columns": ["Structure", "Unit Spec", "Test Result"],
 "data": [
  ["Cc1ccc(CN2CCOCC2)cc1NC(=O)c1ccc(Nc2ncc(C)c(-c3cnn(C)c3)n2)cc1", "L/kg", 0.9],
  ["Cc1ccc(CN2CCOCC2)cc1NC(=O)c1ccc(Nc2ncc(C)c(-c3ccccc3)n2)cc1", "L/kg", 2.1],
  ["Cc1ccc(CN2C[C@@H](C)O[C@@H](C)C2)cc1NC(=O)c1ccc(Nc2ncc(C)c(-c3ccc(OC(F)(F)F)cc3)n2)cc1", "L/kg", 20]
]}

query: Fill in the blank: the reported Vd of "Cc1ccc(CN2CCN(C)CC2)cc1NC(=O)c1ccc(Nc2ncc(C)c(-c3ccncc3)n2)cc1" is ____.
result: 5.7

###

Test Method Notes: Oral bioavailability in Sprague-Dawley rat at 5 mg/kg
Assay type: ADME, organism-based
Conditions Used: in vivo
Recorded Metric: bioavailability
Form field: result (number plus unit)

{"columns": ["Structure", "bioavailability"],
 "data": [
  ["Cc1ccc(CN2CCOCC2)cc1NC(=O)c1ccc(Nc2ncc(C)c(-c3ccc(OC(F)(F)F)cc3)n2)cc1", "46.3%"],
  ["Cc1ccc(CN2C[C@@H](C)O[C@@H](C)C2)cc1NC(=O)c1ccc(Nc2ncc(C)c(-c3ccc(OC(F)(F)F)cc3)n2)cc1", "44.4%"]
]}

query: Query: bioavailability; subject: "Cc1ccc(CN2CCOCC2)cc1NC(=O)c1ccc(Nc2ncc(C)c(-c3cnn(C)c3)n2)cc1"
result: 63.6%

###

Cmax for assorted compounds
Test Method Notes: Cmax in Sprague-Dawley rat at 5 mg/kg, po
Assay type: ADME, organism-based
Parameters: dose 5 mg/kg, route oral
Conditions Used: in vivo
Please report the result as a number followed by the unit.

Worked cases, answers included:
{"columns": ["Structure", "Recorded Metric", "Test Result"],
 "data": [
  ["Cc1ccc(CN2CCOCC2)cc1NC(=O)c1ccc(Nc2ncc(C)c(-c3ccc(OC(F)(F)F)cc3)n2)cc1", "Cmax", "280 ng/mL"],
  ["Cc1ccc(CN2C[C@@H](C)O[C@@H](C)C2)cc1NC(=O)c1ccc(Nc2ncc(C)c(-c3ccc(OC(F)(F)F)cc3)n2)cc1", "Cmax", "94 ng/mL"]
]}

Switching to the query record.
query: # Cmax lookup, item "Cc1ccc(CN2CCOCC2)cc1NC(=O)c1ccc(Nc2ncc(C)c(-c3cnn(C)c3)n2)cc1"
result: 1500 ng/mL

###

Test Method Notes: Mean residence time (0 to t) in Sprague-Dawley rat at 1 mg/kg, iv
Assay type: ADME, organism-based
Parameters: dose 1 mg/kg, route intravenous
Conditions Used: Sprague-Dawley, in vivo
Below, each of the compounds is paired with its reported MRT last value.
Quick reminder: number only, in h, skip the unit.

Completed entries (count: 3):
{"columns": ["Structure", "MRT last, h"],
 "data": [
  ["Cc1ccc(CN2CCN(C)CC2)cc1NC(=O)c1ccc(Nc2ncc(C)c(-c3ccncc3)n2)cc1", 0.9],
  ["Cc1ccc(CN2C[C@@H](C)O[C@@H](C)C2)cc1NC(=O)c1ccc(Nc2ncc(C)c(-c3ccc(OC(F)(F)F)cc3)n2)cc1", 7.4],
  ["Cc1ccc(CN2CCOCC2)cc1NC(=O)c1ccc(Nc2ncc(C)c(-c3cnn(C)c3)n2)cc1", 0.81]
]}

Consider the record given below.
query: Quick one: MRT last of "Cc1ccc(CN2CCOCC2)cc1NC(=O)c1ccc(Nc2ncc(C)c(-c3ccccc3)n2)cc1" ?
result: 1.2

###

Test Method Notes: Clearance in Sprague-Dawley rat at 1 mg/kg, iv
Type: ADME, organism-based
Design: dose 1 mg/kg, route intravenous
Conditions Used: in vivo
Below, each entry is listed alongside its reported clearance.

{"columns": ["Structure", "Test Result"],
 "data": [
  ["Cc1ccc(CN2C[C@@H](C)O[C@@H](C)C2)cc1NC(=O)c1ccc(Nc2ncc(C)c(-c3ccc(OC(F)(F)F)cc3)n2)cc1", "24.9 mL/min/kg"],
  ["Cc1ccc(CN2CCOCC2)cc1NC(=O)c1ccc(Nc2ncc(C)c(-c3cnn(C)c3)n2)cc1", "14.3 mL/min/kg"],
  ["Cc1ccc(CN2CCOCC2)cc1NC(=O)c1ccc(Nc2ncc(C)c(-c3ccccc3)n2)cc1", "23.3 mL/min/kg"]
]}

Continue with the next compound.
query: Tell me the measured clearance of "Cc1ccc(CN2CCN(C)CC2)cc1NC(=O)c1ccc(Nc2ncc(C)c(-c3ccncc3)n2)cc1" , please.
result: 61.5 mL/min/kg

###

Test Method Notes: Half life in Sprague-Dawley rat at 5 mg/kg, po
Format: ADME, organism-based
Parameters: dose 5 mg/kg, route oral
Conditions Used: in vivo
Recorded Metric: half-life (h)
Hi! Could you send only the number? It should be in h, unit omitted.

Observe how each entry below is paired with its result.
{"columns": ["Structure", "Unit Spec", "half-life"],
 "data": [
  ["Cc1ccc(CN2C[C@@H](C)O[C@@H](C)C2)cc1NC(=O)c1ccc(Nc2ncc(C)c(-c3ccc(OC(F)(F)F)cc3)n2)cc1", "h", 9.5],
  ["Cc1ccc(CN2CCOCC2)cc1NC(=O)c1ccc(Nc2ncc(C)c(-c3ccc(OC(F)(F)F)cc3)n2)cc1", "h", 5.8]
]}

Next compound, half-life to be filled in.
query: Item "Cc1ccc(CN2CCOCC2)cc1NC(=O)c1ccc(Nc2ncc(C)c(-c3cnn(C)c3)n2)cc1" has what recorded half-life?
result: 1.4

###

Test Method Notes: Clearance in Sprague-Dawley rat at 5 mg/kg, po
Assay type: ADME, organism-based
Parameters: dose 5 mg/kg, route oral
Conditions Used: in vivo
Reported values of CL/F for individual entries
Note: unit mL/min/kg is implicit; provide only the numeric part.

Example cases with answers are listed next.
{"columns": ["Structure", "Test Result"],
 "data": [
  ["Cc1ccc(CN2CCOCC2)cc1NC(=O)c1ccc(Nc2ncc(C)c(-c3cnn(C)c3)n2)cc1", 23.9],
  ["Cc1ccc(CN2CCOCC2)cc1NC(=O)c1ccc(Nc2ncc(C)c(-c3ccc(OC(F)(F)F)cc3)n2)cc1", 32.8]
]}

# next molecule below
query: // CL/F lookup, key: "Cc1ccc(CN2C[C@@H](C)O[C@@H](C)C2)cc1NC(=O)c1ccc(Nc2ncc(C)c(-c3ccc(OC(F)(F)F)cc3)n2)cc1"
result: 51.9

###

Test Method Notes: AUC in Sprague-Dawley rat at 1 mg/kg, iv
Format: ADME, organism-based
Parameters: dose 1 mg/kg, route intravenous
Conditions Used: plasma
Criterion: AUC meeting or surpassing 700 ng·h/mL. Met: 1. Not met: 0.

{"columns": ["Structure", "Assigned Class"],
 "data": [
  ["Cc1ccc(CN2C[C@@H](C)O[C@@H](C)C2)cc1NC(=O)c1ccc(Nc2ncc(C)c(-c3ccc(OC(F)(F)F)cc3)n2)cc1", 0]
]}

query: Given "Cc1ccc(CN2CCOCC2)cc1NC(=O)c1ccc(Nc2ncc(C)c(-c3ccc(OC(F)(F)F)cc3)n2)cc1" , state whether its AUC is at least 700 ng·h/mL.
result: 1

query: Follow-up entry: "Cc1ccc(CN2CCOCC2)cc1NC(=O)c1ccc(Nc2ncc(C)c(-c3cnn(C)c3)n2)cc1"
result: 1

query: Another compound: "Cc1ccc(CN2CCN(C)CC2)cc1NC(=O)c1ccc(Nc2ncc(C)c(-c3ccncc3)n2)cc1"
result: 0

###

Test Method Notes: AUC in Sprague-Dawley rat at 5 mg/kg, po
Assay type: ADME, organism-based
Design: dose 5 mg/kg, route oral
Conditions Used: plasma
Recorded Metric: AUC (ng·h/mL)
Please respond with the number in ng·h/mL and leave the unit unwritten.

Consider the following illustrative entries.
{"columns": ["Structure", "Unit Spec", "AUC"],
 "data": [
  ["Cc1ccc(CN2CCOCC2)cc1NC(=O)c1ccc(Nc2ncc(C)c(-c3cnn(C)c3)n2)cc1", "ng·h/mL", 3800],
  ["Cc1ccc(CN2CCOCC2)cc1NC(=O)c1ccc(Nc2ncc(C)c(-c3ccc(OC(F)(F)F)cc3)n2)cc1", "ng·h/mL", 2400]
]}

query: Entry under review: "Cc1ccc(CN2C[C@@H](C)O[C@@H](C)C2)cc1NC(=O)c1ccc(Nc2ncc(C)c(-c3ccc(OC(F)(F)F)cc3)n2)cc1" . Reported AUC?
result: 1300

###

Test Method Notes: Cmax in Sprague-Dawley rat at 1 mg/kg, iv
Type: ADME, organism-based
Set-up: dose 1 mg/kg, route intravenous
Conditions Used: in vivo
Everything with Cmax lower than 1000 ng/mL is False; everything else, including exactly 1000 ng/mL, is True.

Solved entries (count: 2):
{"columns": ["Structure", "Assigned Class"],
 "data": [
  ["Cc1ccc(CN2CCOCC2)cc1NC(=O)c1ccc(Nc2ncc(C)c(-c3ccccc3)n2)cc1", "False"],
  ["Cc1ccc(CN2CCOCC2)cc1NC(=O)c1ccc(Nc2ncc(C)c(-c3cnn(C)c3)n2)cc1", "True"]
]}

query: Hello, I need to know if "Cc1ccc(CN2CCOCC2)cc1NC(=O)c1ccc(Nc2ncc(C)c(-c3ccc(OC(F)(F)F)cc3)n2)cc1" has measured Cmax not below 1000 ng/mL. Thanks!
result: True

query: Repeat for the following compound: "Cc1ccc(CN2CCN(C)CC2)cc1NC(=O)c1ccc(Nc2ncc(C)c(-c3ccncc3)n2)cc1"
result: False

query: Subsequent entry: "Cc1ccc(CN2C[C@@H](C)O[C@@H](C)C2)cc1NC(=O)c1ccc(Nc2ncc(C)c(-c3ccc(OC(F)(F)F)cc3)n2)cc1"
result: False
